B1: EMD (parent)
chain: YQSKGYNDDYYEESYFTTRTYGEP

Variants of: B1
protocol.text: protein stability index of a GFP-peptide fusion (GPS, HEK-293T) (PSI 1-6); higher = more stable;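 also: lentivirally expressed fusions sorted by FACS into six bins by GFP to DsRed ratio, PSI derived from sequencing read proportions per bin multiplied by bin number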
condition.label: c terminus: a fixed tail appended
metric: protein stability index

D8T :: 2.09
K4I :: 1.98
T17M :: 1.71

In the following, a different variant is considered.
-- ask I'd like to know its protein stability index. The variant in question is G5Y
-- reply 1.89
